Target: HRgpA-6H (Porphyromonas gingivalis) (UniProt P28784)
Assay: ELISA, coated HRgpA-6H
Quantity Measured: Ratio OD(Variant)/OD(WT)
One number for each entry.

Req: Provide measured Ratio OD(Variant)/OD(WT) value, entry: KB001 mouse Fab VH S61K (Fab, V domains shown) VH: EVQLKQSGPGLVAPSQSLSITCTVSGFSLSIYSVHWVRQPPGKGLEWLGMIWGGGSSDYNKALKSRLSISKDNSKSQVFLKMNSLQTDDTAMYYCARNGNFYAMDYWGQGTSVTVSS VL: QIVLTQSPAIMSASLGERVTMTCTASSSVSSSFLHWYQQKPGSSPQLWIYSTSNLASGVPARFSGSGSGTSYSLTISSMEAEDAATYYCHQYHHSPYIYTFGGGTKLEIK
Resp: 0.993
